Would you kindly list fold change for each of these compounds?
assayExplanation: viability loss with induced miR-34 in A549 – imaging, A549 dox-inducible miR-34, nuclei and caspase counts, primary screen (AID 1347080); note: test concentration not given here
appliedConditions: A549 miR-34 inducible, Hoechst nuclei count, 48 h; hits give low values; cell number ratio, induced over uninduced
Answers are plain numbers.

Known results for compounds:
[
  {
    "smilesString": "Cc1csc(-c2nnc(Nc3ccc(Oc4ncccc4-c4ccnc(N)n4)cc3)c3ccccc23)c1",
    "propertyLabel": "fold change",
    "reported": 1.11
  },
  {
    "smilesString": "O=C(O)CCC/C=C\\C[C@@H]1[C@@H](CCC(=O)CCc2ccccc2)[C@H](O)C[C@@H]1O",
    "propertyLabel": "fold change",
    "reported": 0.934
  },
  {
    "smilesString": "O=C1c2cccc(O)c2C(=O)c2c(O)cc(CO)cc21",
    "propertyLabel": "fold change",
    "reported": 0.954
  },
  {
    "smilesString": "NC(=NCCCCCCN=C(N)N=C(N)Nc1ccc(Cl)cc1)N=C(N)Nc1ccc(Cl)cc1",
    "propertyLabel": "fold change",
    "reported": 0.848
  },
  {
    "smilesString": "CCN(CC)c1ccc(C2=C(Cl)C(=O)c3ncccc3C2=O)cc1",
    "propertyLabel": "fold change",
    "reported": 1.01
  }
]

Now consider a different compound.
Look at this compound and give its reported fold change. CCS(=O)(=O)N1CCC[C@@H]2CN3CCc4cc(OC)ccc4[C@@H]3C[C@@H]21 0.945
